target: CYP2D6 (Homo sapiens (Human), UniProt P10635); assay: Cytochrome P450 inhibition assay, recombinant CYP2D6 (MAMC substrate); type: in vitro ADME; conditions: recombinant enzyme
Sequence (P10635 whole entry): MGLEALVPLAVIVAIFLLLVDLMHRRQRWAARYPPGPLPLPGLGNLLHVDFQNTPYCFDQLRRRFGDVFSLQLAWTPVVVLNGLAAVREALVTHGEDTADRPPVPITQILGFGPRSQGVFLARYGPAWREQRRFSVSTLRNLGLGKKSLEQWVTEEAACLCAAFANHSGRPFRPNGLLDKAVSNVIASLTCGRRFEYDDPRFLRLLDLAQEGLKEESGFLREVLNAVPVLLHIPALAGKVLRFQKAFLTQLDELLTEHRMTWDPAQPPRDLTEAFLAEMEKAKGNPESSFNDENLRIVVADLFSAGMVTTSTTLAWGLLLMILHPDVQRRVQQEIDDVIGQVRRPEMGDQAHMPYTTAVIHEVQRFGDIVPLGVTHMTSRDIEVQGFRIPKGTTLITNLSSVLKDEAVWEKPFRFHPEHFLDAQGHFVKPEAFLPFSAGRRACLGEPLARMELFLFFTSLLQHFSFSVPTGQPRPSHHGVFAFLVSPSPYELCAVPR
quantity_measured: IC50
Answer format: number, then unit.

Here are 4 compounds together with their reported answers.
compound	study_system	IC50
CNC[C@H](c1ccc2ccccc2c1)[C@H](OCCO)c1ccccc1 [Compound 32]	CYP2D6 (Homo sapiens (Human), UniProt P10635)	560 nM
CNCC(Cc1cccnc1)c1ccc2ccccc2c1 (centres unmarked) [Compound 74]	CYP2D6 (Homo sapiens (Human), UniProt P10635)	790 nM
CNC[C@@H](c1ccc2ccccc2c1)[C@H](O)c1ccccc1F [Compound 96]	CYP2D6 (Homo sapiens (Human), UniProt P10635)	1100 nM
CN1CCO[C@@H](c2ccccc2)[C@@H](c2ccc3ccccc3c2)C1 [Compound 123]	CYP2D6 (Homo sapiens (Human), UniProt P10635)	6600 nM

Lookup: Query the reported IC50 for CYP2D6 (Homo sapiens (Human), UniProt P10635); item: CNC[C@H](c1ccc2ccccc2c1)[C@H](OCC(=O)NC)c1ccccc1 [Compound 1]
Found: 1100 nM
